Entry source: ChEMBL document CHEMBL1795201

assay: Aqueous solubility of the compound in crystalline form at pH 6.5; format: physicochemical; settings: aqueous medium
measurement type: solubility (µg/mL)
Number in µg/mL, nothing else.

Fill in the blank: the reported solubility of `Cc1ccc(C(=O)NCCO)cc1-n1cnc(OCc2ccc(F)cc2F)c(Cl)c1=O` is ____. 23

Cool, now `CNC(=O)c1ccc(C)c(-n2c(C)cc(OCc3ccc(F)cc3F)c(Br)c2=O)c1` 10

====

assay: Aqueous solubility of the compound in amorphous form at pH 6.5; assay type: physicochemical; details: aqueous medium, read-out: solubility
measurement type: log10 of solubility (log10 of the value in µg/mL)
log10 solubility, µg/mL

Fill in the blank: the reported log10 of solubility of `Cc1ccc(C(=O)NCC(N)=O)cc1-n1cnc(OCc2ccc(F)cc2F)c(Cl)c1=O` is ____. 1.15

Cool, now `Cc1ccc(C(=O)NC[C@H](C)CO)cc1-n1cnc(OCc2ccc(F)cc2F)c(Cl)c1=O` 1.97

Cool, now `Cc1ccc(C(=O)NCCO)cc1-n1cnc(OCc2ccc(F)cc2F)c(C)c1=O` 1.45

Cool, now `Cc1ccc(C(=O)NCCO)cc1-n1cnc(OCc2ccc(F)cc2F)c(Cl)c1=O` 1.71

Cool, now `CCc1c(OCc2ccc(F)cc2F)ncn(-c2cc(C(=O)NCCO)ccc2C)c1=O` 1.30

Cool, now `Cc1ccc(C(=O)NC[C@@H](O)CO)cc1-n1cnc(OCc2ccc(F)cc2F)c(Cl)c1=O` 2.21

Cool, now `Cc1ccc(C(=O)N[C@H](C)C(N)=O)cc1-n1cnc(OCc2ccc(F)cc2F)c(Cl)c1=O` 2.17

====

test: Volume of distribution at steady state in rat at 0.2 mg/kg, iv; type: ADME, organism-based; design: dose 0.2 mg/kg, route intravenous; conditions: in vivo, read-out: Vdss
measurement type: Vd (L/kg)
Number in L/kg, nothing else.

Fill in the blank: the reported Vd of `Cc1ccc(C(=O)NCCO)cc1-n1cnc(OCc2ccc(F)cc2F)c(Cl)c1=O` is ____. 1.32

====

assay: Half life in dog at 1 mg/kg, iv; format: ADME, organism-based, Canis lupus familiaris; set-up: dose 1 mg/kg, route intravenous; settings: in vivo
measurement type: half-life

Fill in the blank: the reported half-life of `Cc1ccc(C(=O)NCCO)cc1-n1cnc(OCc2ccc(F)cc2F)c(Cl)c1=O` is ____. 8.7 h

====

assay: Metabolic stability in human liver microsomes at 2 uM after 45 mins by LC-MS analysis in presence of NADPH; format: ADME, Microsome; conditions: read-out: Stability
Friendly reminder: remaining at 0.75 h, 2 µM below 80% is True, at or above is False.

A record lists `Cc1ccc(C(=O)NCCO)cc1-n1cnc(OCc2ccc(F)cc2F)c(C)c1=O` . Is its remaining at 0.75 h, 2 µM below 80%? False

Cool, now `Cc1ccc(C(=O)N[C@H](C)C(N)=O)cc1-n1cnc(OCc2ccc(F)cc2F)c(Cl)c1=O` True

Cool, now `CCc1c(OCc2ccc(F)cc2F)ncn(-c2cc(C(=O)NCCO)ccc2C)c1=O` True

Cool, now `Cc1ccc(C(=O)NC[C@H](C)CO)cc1-n1cnc(OCc2ccc(F)cc2F)c(Cl)c1=O` False

Cool, now `Cc1ccc(C(=O)NC[C@@H](O)CO)cc1-n1cnc(OCc2ccc(F)cc2F)c(Cl)c1=O` False

Cool, now `Cc1ccc(C(=O)NCC(N)=O)cc1-n1cnc(OCc2ccc(F)cc2F)c(Cl)c1=O` False

Cool, now `Cc1ccc(C(=O)NCCO)cc1-n1cnc(OCc2ccc(F)cc2F)c(Cl)c1=O` False

====

test: Lipophilicity, log P of the compound; assay type: physicochemical; details: octanol/water
Give logP for every item shown.
Quick one: just the number, no unit, thanks!

Fill in the blank: the reported logP of CNC(=O)c1ccc(C)c(-n2c(C)cc(OCc3ccc(F)cc3F)c(Br)c2=O)c1 [PH-797804] is ____. 3.35

Cool, now `Cc1ccc(C(=O)NCCO)cc1-n1cnc(OCc2ccc(F)cc2F)c(Cl)c1=O` 1.65

====

experiment: Oral bioavailability in rat at 0.2 mg/kg; assay type: ADME, organism-based; details: in vivo
measurement type: bioavailability (%)
Number in %, nothing else.

Fill in the blank: the reported bioavailability of `Cc1ccc(C(=O)NCCO)cc1-n1cnc(OCc2ccc(F)cc2F)c(Cl)c1=O` is ____. 99

====

assay: Oral bioavailability in dog at 1 mg/kg; format: ADME, organism-based, Canis lupus familiaris; conditions: in vivo
measurement type: bioavailability (%)
Number in %, nothing else.

Fill in the blank: the reported bioavailability of `Cc1ccc(C(=O)NCCO)cc1-n1cnc(OCc2ccc(F)cc2F)c(Cl)c1=O` is ____. 67

====

assay: Metabolic stability in rat liver microsomes at 2 uM after 45 mins by LC-MS analysis in presence of NADPH; type: ADME, Microsome; settings: read-out: Stability
measurement type: remaining at 0.75 h, 2 µM (%)
Number in %, nothing else.

Fill in the blank: the reported remaining at 0.75 h, 2 µM of `Cc1ccc(C(=O)NC[C@@H](O)CO)cc1-n1cnc(OCc2ccc(F)cc2F)c(Cl)c1=O` is ____. 100

Cool, now `Cc1ccc(C(=O)N[C@H](C)C(N)=O)cc1-n1cnc(OCc2ccc(F)cc2F)c(Cl)c1=O` 72

Cool, now `Cc1ccc(C(=O)NC[C@H](C)CO)cc1-n1cnc(OCc2ccc(F)cc2F)c(Cl)c1=O` 85

Cool, now `Cc1ccc(C(=O)NCC(N)=O)cc1-n1cnc(OCc2ccc(F)cc2F)c(Cl)c1=O` 100

Cool, now `CCc1c(OCc2ccc(F)cc2F)ncn(-c2cc(C(=O)NCCO)ccc2C)c1=O` 92

Cool, now `Cc1ccc(C(=O)NCCO)cc1-n1cnc(OCc2ccc(F)cc2F)c(Cl)c1=O` 97

Cool, now `Cc1ccc(C(=O)NCCO)cc1-n1cnc(OCc2ccc(F)cc2F)c(C)c1=O` 99

====

Give bioavailability for every item shown.
experiment: Oral bioavailability in rat at 5 mg/kg administered as suspension; format: ADME, organism-based; settings: in vivo
Number in %, nothing else.

Fill in the blank: the reported bioavailability of `Cc1ccc(C(=O)NCCO)cc1-n1cnc(OCc2ccc(F)cc2F)c(Cl)c1=O` is ____. 99

Cool, now `CNC(=O)c1ccc(C)c(-n2c(C)cc(OCc3ccc(F)cc3F)c(Br)c2=O)c1` 9.3

====

experiment: Volume of distribution at steady state in dog at 1 mg/kg, iv; format: ADME, organism-based, Canis lupus familiaris; design: dose 1 mg/kg, route intravenous; conditions: in vivo, read-out: Vdss
measurement type: Vd (L/kg)
Number in L/kg, nothing else.

Fill in the blank: the reported Vd of `Cc1ccc(C(=O)NCCO)cc1-n1cnc(OCc2ccc(F)cc2F)c(Cl)c1=O` is ____. 0.986

====

test: Half life in rat at 0.2 mg/kg, iv; type: ADME, organism-based; design: dose 0.2 mg/kg, route intravenous; conditions: in vivo
measurement type: half-life (min)
Number in min, nothing else.

Fill in the blank: the reported half-life of `Cc1ccc(C(=O)NCCO)cc1-n1cnc(OCc2ccc(F)cc2F)c(Cl)c1=O` is ____. 390
